Reported EC50 values follow for various molecules
# System: Plasmodium falciparum
# Procedure Text: Antiplasmodial activity against chloroquine-resistant Plasmodium falciparum Dd2 infected in human erythrocytes incubated for 72 hrs by SYBR green staining based fluorescence assay
# Assay type: functional, organism-based
# Recorded Conditions: Dd2, 72 h
Quantity: EC50 (nM)

[
  {
    "Molecule": "C[C@H]1[C@H](OC(=O)CCC(=O)NCCNc2ccnc3cc(Cl)ccc23)O[C@@H]2O[C@@]3(C)CC[C@H]4[C@H](C)CC[C@@H]1[C@@]24OO3",
    "Value Measured": 1
  },
  {
    "Molecule": "C[C@H]1[C@H](OC(=O)CCC(=O)OCc2cn(-c3ccnc4cc(Cl)ccc34)nn2)O[C@@H]2O[C@@]3(C)CC[C@H]4[C@H](C)CC[C@@H]1[C@@]24OO3",
    "Value Measured": 4.2
  },
  {
    "Molecule": "CCN(CC)CCCC(C)Nc1ccnc2cc(Cl)ccc12 (centres undefined)",
    "Value Measured": 165
  },
  {
    "Molecule": "C[C@H]1[C@@H](OCc2cn(-c3ccnc4cc(Cl)ccc34)nn2)O[C@@H]2O[C@@]3(C)CC[C@H]4[C@H](C)CC[C@@H]1[C@@]24OO3",
    "Value Measured": 5.9
  }
]

* * *

# Tested on: Plasmodium falciparum
# Procedure Text: Antiplasmodial activity against chloroquine-resistant Plasmodium falciparum K1 infected in human erythrocytes incubated for 72 hrs by SYBR green staining based fluorescence assay
# Format: functional, organism-based
# Recorded Conditions: K1, 72 h

[
  {
    "Compound": "C[C@H]1[C@@H](OCc2cn(-c3ccnc4cc(Cl)ccc34)nn2)O[C@@H]2O[C@@]3(C)CC[C@H]4[C@H](C)CC[C@@H]1[C@@]24OO3",
    "EC50 (nM)": 4.3
  },
  {
    "Compound": "C[C@H]1[C@H](OC(=O)CCC(=O)OCc2cn(-c3ccnc4cc(Cl)ccc34)nn2)O[C@@H]2O[C@@]3(C)CC[C@H]4[C@H](C)CC[C@@H]1[C@@]24OO3",
    "EC50 (nM)": 1.8
  },
  {
    "Compound": "C[C@H]1[C@H](OC(=O)CCC(=O)NCCNc2ccnc3cc(Cl)ccc23)O[C@@H]2O[C@@]3(C)CC[C@H]4[C@H](C)CC[C@@H]1[C@@]24OO3",
    "EC50 (nM)": 0.78
  },
  {
    "Compound": "CCN(CC)CCCC(C)Nc1ccnc2cc(Cl)ccc12 (centres undefined)",
    "EC50 (nM)": 303
  }
]
